// endpoint pIC50 / system fascin (Homo sapiens (Human), UniProt Q16658)
pIC50: −log10 of the molar value.
Readout: pIC50

Worked examples, 5 compounds total:
INSERT INTO assay_data (compound, assay_value) VALUES
  ('O=C(Cn1cnc2c(cnn2C2CCS(=O)(=O)C2)c1=O)NCc1ccc(F)cc1 (centres unmarked) [Compound 24]', 5.37),
  ('CCc1ccc(S(=O)(=O)Nc2cc(Sc3nc[nH]n3)c(O)c3ccccc23)cc1 [Compound 11]', 6.05),
  ('COc1ccc(S(=O)(=O)Nc2cc(Sc3nc[nH]n3)c(O)c3ccccc23)cc1 [Compound 10]', 6.09),
  ('c1ccc(Nc2nc(-c3ccccc3)[n+](-c3ccccc3)s2)cc1 [Compound 7]', 5.70),
  ('O=c1c2cnn(C3CCS(=O)(=O)C3)c2ncn1Cc1ccc(Cl)c(Cl)c1 (centres unmarked) [Compound 1]', 6.13);

A = c1ccc(CNc2nc(-c3ccccc3)[n+](-c3ccccc3)s2)cc1 [Compound 6]
B = O=C(Nc1nn(Cc2ccc(C(F)(F)F)cc2)c2ccccc12)c1ccco1 [Compound 2]
Ask: Which has the smaller recorded pIC50, A or B ? Reply briefly: the label of your chosen item.
Reply: A
(A: 5.30, B: 5.70)

1 = O=C(Cn1cnc2c(cnn2C2CCS(=O)(=O)C2)c1=O)Nc1cccc(C(F)(F)F)c1 (centres unmarked) [Compound 23]
2 = C/N=c1/nc(-c2ccccc2)n(-c2ccccc2)s1 [Compound 4]
3 = CCOc1ccc(S(=O)(=O)Nc2cc(Sc3nc[nH]n3)c(O)c3ccccc23)cc1 [Compound 9]
Ask: Order the items by recorded pIC50; the first position goes to the largest value. Sort the labels as requested; that list is your answer.
Reply: 2, 3, 1

A = O=S(=O)(Nc1cc(Sc2nc[nH]n2)c(O)c2ccccc12)c1ccc(Br)cc1 [Compound 14]
B = O=[N+]([O-])c1ccc(Cl)c(S(=O)(=O)Nc2nc3ccc(Cl)cc3s2)c1 [Compound 3]
Ask: Which has the smaller recorded pIC50, A or B ? Reply briefly: the label of your chosen item.
Reply: A
(A: 5.58, B: 6.19)

###

pIC50: −log10 of the molar value.
// endpoint pIC50 / system fascin (Homo sapiens (Human), UniProt Q16658)

INSERT INTO assay_data (compound, tested_on, assay_value) VALUES
  ('O=C(Cn1cnc2c(cnn2C2CCS(=O)(=O)C2)c1=O)c1ccc2c(c1)OCCO2 (centres unmarked)', 'fascin (Homo sapiens (Human), UniProt Q16658)', '~5.00');

Ask: // fetch fascin (Homo sapiens (Human), UniProt Q16658) pIC50 for O=C(/C=C/c1ccccc1)Nc1nc2ccccc2s1 [Compound 20, N-(benzo[d]thiazol-2-yl)cinnamamide]
Reply: ~5.40

Ask: // fetch fascin (Homo sapiens (Human), UniProt Q16658) pIC50 for CNc1nc(-c2ccccc2)[n+](-c2ccccc2)s1
Reply: 6.30

Ask: // fetch fascin (Homo sapiens (Human), UniProt Q16658) pIC50 for O=S(=O)(Nc1nc2ccc(Oc3ccccc3)cc2s1)c1cccc(Cl)c1
Reply: ~5.40

Ask: // fetch fascin (Homo sapiens (Human), UniProt Q16658) pIC50 for O=S(=O)(Nc1nc2ccc(F)cc2s1)c1cccc(Cl)c1Cl
Reply: ~4.89
